MEASUREMENT_DESCRIPTION: viability loss in pontine glioma line – cell-based, SU-DIPG-XXV, MIPE5.0, CellTiter-Glo, qHTS, dose response (AID 1347065);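 further: cells exposed to compound for 48 hours before ATP readout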
REPORTED_CONDITIONS: CellTiter-Glo ATP luminescence
Records with an inconclusive call do not appear. The source made the active and inactive calls. Cut-off not given; nearly all actives show AC50 up to about 26 µM.
Reply using exactly one outcome from active, inactive

CHEM_SMILES	GROUP
COc1cc(Nc2c(C#N)cnc3cc(OCCCN4CCN(C)CC4)c(OC)cc23)c(Cl)cc1Cl	active
O=c1[nH]c(=O)n([C@H]2C[C@H](O)[C@@H](CO)O2)cc1C(F)(F)F	inactive

Status in this test for "O=c1cc(-c2ccccc2)oc2cc(O)cc(O)c12" ?
active

----------
TARGET_ENTITY: Mitogen-activated protein kinase 7 (Homo sapiens) (UniProt Q13164)
Sequence (Q13164 whole entry, looked up, the tested form may be a part): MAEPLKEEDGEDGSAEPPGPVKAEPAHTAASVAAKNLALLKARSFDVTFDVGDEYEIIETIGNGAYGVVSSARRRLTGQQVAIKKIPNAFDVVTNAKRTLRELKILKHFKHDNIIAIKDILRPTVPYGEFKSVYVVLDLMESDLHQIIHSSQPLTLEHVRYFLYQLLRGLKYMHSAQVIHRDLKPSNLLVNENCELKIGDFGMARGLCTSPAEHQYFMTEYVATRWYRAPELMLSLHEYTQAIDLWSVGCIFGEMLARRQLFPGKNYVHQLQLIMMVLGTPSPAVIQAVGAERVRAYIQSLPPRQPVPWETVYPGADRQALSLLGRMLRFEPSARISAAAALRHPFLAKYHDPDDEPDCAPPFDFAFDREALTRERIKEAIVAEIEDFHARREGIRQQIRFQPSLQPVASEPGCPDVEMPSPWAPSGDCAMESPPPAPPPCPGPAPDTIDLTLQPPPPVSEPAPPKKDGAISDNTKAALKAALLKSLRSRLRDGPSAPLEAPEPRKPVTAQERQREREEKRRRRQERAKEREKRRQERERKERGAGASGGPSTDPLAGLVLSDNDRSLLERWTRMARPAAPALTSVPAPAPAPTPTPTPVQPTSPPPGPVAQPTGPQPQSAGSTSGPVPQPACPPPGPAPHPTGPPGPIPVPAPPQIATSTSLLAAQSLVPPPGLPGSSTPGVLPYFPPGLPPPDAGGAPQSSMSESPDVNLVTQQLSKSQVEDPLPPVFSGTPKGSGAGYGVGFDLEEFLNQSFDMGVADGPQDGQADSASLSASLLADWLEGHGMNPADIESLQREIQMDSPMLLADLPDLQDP
MEASUREMENT_DESCRIPTION: ERK5 transactivation activators in reporter cells, primary screen, cell-based, HTS (AID 1508626);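 further: luciferase driven by Gal4-ERK5 fusion binding five Gal4 sites before minimal TATA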
REPORTED_CONDITIONS: HeLa Gal4-ERK5 transactivation, 18 h, at 5 µM
Active and inactive are the calls of the source.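 How the source made its calls: active means luciferase signal above three times the same-plate solvent-only control wells; inactive means the rest.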
Reply using exactly one outcome from active, inactive

Field: example entries. Status: answers known.
COMPOUND	GROUP
CC(=O)Oc1ccc(O)cc1	inactive
CC(C)c1c(C(=O)Nc2ccccc2)c(-c2ccccc2)c(-c2ccc(F)cc2)n1CC[C@@H](O)C[C@@H](O)CC(=O)O	inactive
C[C@@H]1CC[C@H]2C(C)(C)[C@H]3C[C@@]12CC[C@@]3(C)O	inactive
CN/C(=C\[N+](=O)[O-])NCCSCc1ccc(CN(C)C)o1	inactive

Status in this test for "CC(C)(C)NC[C@H](O)c1ccc(O)c(CO)c1" ?
inactive

Status in this test for "C=CCSCC=C" ?
inactive

Status in this test for CC1CC(OC(=O)c2ccccc2O)CC(C)(C)C1 (stereo unspecified) ?
inactive

Status in this test for "CC1=CC(=O)C2=C(C)CC[C@@H]3[C@H](OC(=O)[C@H]3C)[C@@H]12" ?
inactive

Status in this test for "COc1cc(C(=O)NCCCCCC(=O)O)cc(OC)c1OC" ?
inactive

Status in this test for "COc1c2ccoc2c(OC)c2oc(=O)ccc12" ?
active

Status in this test for "CC(=O)OCC(=O)[C@@]1(O)CC[C@H]2[C@@H]3CCC4=CC(=O)CC[C@]4(C)[C@@]3(F)[C@@H](O)C[C@@]21C" ?
inactive

----------
Below, each of the compounds is paired with its reported inhibition of viability value.
MEASUREMENT_DESCRIPTION: HCT116 colon cancer cell growth inhibition, primary screen, CellTiter-Glo luminescence, NPC library (AID 1117342)
REPORTED_CONDITIONS: at 20 µM (top of the series)
Respond with the bare value in %.

# count of solved cases: 5
COMPOUND	inhibition of viability, %
CCCCCCCCCCCCCCCC(=O)O	-38.8
Nc1ncn([C@H]2C[C@H](O)[C@@H](CO)O2)c(=O)n1	31.2
O=C(CCCN1CCC(O)(c2ccc(Br)cc2)CC1)c1ccc(F)cc1	46.1
CO[C@]1(NC(=O)CSC(F)F)C(=O)N2C(C(=O)O)=C(CSc3nnnn3CCO)CO[C@H]21	-0.4
C[C@@H](CN1CC(=O)NC(=O)C1)N1CC(=O)NC(=O)C1	62

Indicate its recorded inhibition of viability; the compound in question is "Oc1ccc(O)cc1"
-47.7

Indicate its recorded inhibition of viability; the compound in question is "COc1cc(C(=O)N2CCOCC2)cc(OC)c1OC"
-2.4

Indicate its recorded inhibition of viability; the compound in question is "CC(=O)OCC(=O)[C@@]1(O)CC[C@H]2[C@@H]3CCC4=CC(=O)C=C[C@]4(C)[C@@]3(F)[C@@H](O)C[C@@]21C"
-4.3

Indicate its recorded inhibition of viability; the compound in question is "CC(C)Cn1cnc2c1c(=O)n(C)c(=O)n2C"
31.9
